B1: Homeobox protein cut-like 2, residues 895 to 963; numbered along this chain, O14529 (parent)
chain: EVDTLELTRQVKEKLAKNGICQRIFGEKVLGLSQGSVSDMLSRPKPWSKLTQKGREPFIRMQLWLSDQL

variants of: B1; assay: abundance fitness (aPCA) (normalised: wild type 0, dead -1); higher = more abundant; growth selection in yeast, the domain comes from the species named; conditions: Homo sapiens
Each entry gets N if its abundance fitness stays under -0.2, and Y if its abundance fitness is -0.2 or above.

Use the examples below as a reference point.
residue-sequence	class-assignment
EVDTLELTRQVKEKLAKNGICQRIFGEKVLGLSQGSVSDMLSRPKPWSKLTQKGREPFIRMQLWLSDQF [L69F]	Y
EVDTLELTRQVKEKLAKNGICQRIFGEKVLGLSQGSVSDMLSRPKQWSKLTQKGREPFIRMQLWLSDQL [P46Q]	Y
NVDTLELTRQVKEKLAKNGICQRIFGEKVLGLSQGSVSDMLSRPKPWSKLTQKGREPFIRMQLWLSDQL [E1N]	Y

Qu. Hello, I need to know if EVDTLELTRQVKEKLAKNGICQRIFGEKVLGLSQGSVSDMLSRPKPDSKLTQKGREPFIRMQLWLSDQL [W47D] has measured abundance fitness not below -0.2. Thanks!
Ans. N

Qu. Tell me whether abundance fitness is at least -0.2 here: EVDTLELTRQVKEKLAKNGICQRIFGEIVLGLSQGSVSDMLSRPKPWSKLTQKGREPFIRMQLWLSDQL [K28I]
Ans. N

Qu. Reported abundance fitness at or above -0.2? EVDTLELTRQVKEKLAKNGICQRIFGEKVLGLSQRSVSDMLSRPKPWSKLTQKGREPFIRMQLWLSDQL [G35R]
Ans. Y

Qu. Assess whether reported abundance fitness for EVDTLELTRQVKETLAKNGICQRIFGEKVLGLSQGSVSDMLSRPKPWSKLTQKGREPFIRMQLWLSDQL [K14T] sits at -0.2 or higher.
Ans. Y

Qu. Dear colleague, could you confirm whether EVDRLELTRQVKEKLAKNGICQRIFGEKVLGLSQGSVSDMLSRPKPWSKLTQKGREPFIRMQLWLSDQL [T4R] has abundance fitness at or above -0.2?
Ans. Y

Qu. Could you tell me if the measured abundance fitness of EVDTLELTRQVKEKLAKNGICQRIFGEKVLGLSQGSVSDMLSRPKPWSQLTQKGREPFIRMQLWLSDQL [K49Q] reaches -0.2 or more?
Ans. Y

Qu. Identify whether the reported abundance fitness of the following variant is -0.2 or greater: EVDTLELTRQVKEKLAKNGINQRIFGEKVLGLSQGSVSDMLSRPKPWSKLTQKGREPFIRMQLWLSDQL [C21N]
Ans. Y

Qu. Please indicate if the recorded abundance fitness for EVDTLELTRQVKEKLAKNGICQCIFGEKVLGLSQGSVSDMLSRPKPWSKLTQKGREPFIRMQLWLSDQL [R23C] meets or exceeds -0.2.
Ans. N

Qu. Entry EVDTLELTRQVKEKLAKNGICQRIFGEKVLGLSQGSVSDMLSRPKPWSKLDQKGREPFIRMQLWLSDQL [T51D] : is its abundance fitness no less than -0.2?
Ans. Y

Qu. Is abundance fitness for EVDTLELTRQVKEKLAKNGICQTIFGEKVLGLSQGSVSDMLSRPKPWSKLTQKGREPFIRMQLWLSDQL [R23T] at or above -0.2?
Ans. Y

Qu. State whether the measured abundance fitness reaches -0.2, counting equality as reaching it, for EVDTLELTRQVKEKLAKNGICQRIFGEKVLGLSQGSVSDMLSRPKPWSKLTQYGREPFIRMQLWLSDQL [K53Y]
Ans. Y

Qu. Reported abundance fitness at or above -0.2? EVDTLELTRQVKEKLAKNGICQRIFGEKVLGLSQGSVSDMLSQPKPWSKLTQKGREPFIRMQLWLSDQL [R43Q]
Ans. Y

The values you see were collected from the Human Domainome abundance scans (Beltran et al. 2025).
